The entries below are paired with their reported pIC50.
assay target: Histone deacetylase 2/Nuclear receptor corepressor 2 (Homo sapiens, UniProt Q92769)
Sequence (Q92769 whole entry): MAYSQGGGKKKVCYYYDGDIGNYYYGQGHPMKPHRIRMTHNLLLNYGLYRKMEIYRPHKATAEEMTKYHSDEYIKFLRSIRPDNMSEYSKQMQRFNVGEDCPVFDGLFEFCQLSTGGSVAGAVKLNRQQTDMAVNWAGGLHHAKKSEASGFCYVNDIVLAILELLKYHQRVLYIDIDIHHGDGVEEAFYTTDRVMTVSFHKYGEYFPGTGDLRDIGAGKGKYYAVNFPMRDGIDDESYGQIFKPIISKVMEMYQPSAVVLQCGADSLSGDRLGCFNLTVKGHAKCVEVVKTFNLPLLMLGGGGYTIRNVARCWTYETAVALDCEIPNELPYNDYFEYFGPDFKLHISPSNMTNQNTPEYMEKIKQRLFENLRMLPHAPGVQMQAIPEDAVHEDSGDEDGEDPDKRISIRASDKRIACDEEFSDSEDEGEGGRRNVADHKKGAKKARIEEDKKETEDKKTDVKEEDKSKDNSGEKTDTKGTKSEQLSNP
Sequence (Q9Y618 whole entry, further chain): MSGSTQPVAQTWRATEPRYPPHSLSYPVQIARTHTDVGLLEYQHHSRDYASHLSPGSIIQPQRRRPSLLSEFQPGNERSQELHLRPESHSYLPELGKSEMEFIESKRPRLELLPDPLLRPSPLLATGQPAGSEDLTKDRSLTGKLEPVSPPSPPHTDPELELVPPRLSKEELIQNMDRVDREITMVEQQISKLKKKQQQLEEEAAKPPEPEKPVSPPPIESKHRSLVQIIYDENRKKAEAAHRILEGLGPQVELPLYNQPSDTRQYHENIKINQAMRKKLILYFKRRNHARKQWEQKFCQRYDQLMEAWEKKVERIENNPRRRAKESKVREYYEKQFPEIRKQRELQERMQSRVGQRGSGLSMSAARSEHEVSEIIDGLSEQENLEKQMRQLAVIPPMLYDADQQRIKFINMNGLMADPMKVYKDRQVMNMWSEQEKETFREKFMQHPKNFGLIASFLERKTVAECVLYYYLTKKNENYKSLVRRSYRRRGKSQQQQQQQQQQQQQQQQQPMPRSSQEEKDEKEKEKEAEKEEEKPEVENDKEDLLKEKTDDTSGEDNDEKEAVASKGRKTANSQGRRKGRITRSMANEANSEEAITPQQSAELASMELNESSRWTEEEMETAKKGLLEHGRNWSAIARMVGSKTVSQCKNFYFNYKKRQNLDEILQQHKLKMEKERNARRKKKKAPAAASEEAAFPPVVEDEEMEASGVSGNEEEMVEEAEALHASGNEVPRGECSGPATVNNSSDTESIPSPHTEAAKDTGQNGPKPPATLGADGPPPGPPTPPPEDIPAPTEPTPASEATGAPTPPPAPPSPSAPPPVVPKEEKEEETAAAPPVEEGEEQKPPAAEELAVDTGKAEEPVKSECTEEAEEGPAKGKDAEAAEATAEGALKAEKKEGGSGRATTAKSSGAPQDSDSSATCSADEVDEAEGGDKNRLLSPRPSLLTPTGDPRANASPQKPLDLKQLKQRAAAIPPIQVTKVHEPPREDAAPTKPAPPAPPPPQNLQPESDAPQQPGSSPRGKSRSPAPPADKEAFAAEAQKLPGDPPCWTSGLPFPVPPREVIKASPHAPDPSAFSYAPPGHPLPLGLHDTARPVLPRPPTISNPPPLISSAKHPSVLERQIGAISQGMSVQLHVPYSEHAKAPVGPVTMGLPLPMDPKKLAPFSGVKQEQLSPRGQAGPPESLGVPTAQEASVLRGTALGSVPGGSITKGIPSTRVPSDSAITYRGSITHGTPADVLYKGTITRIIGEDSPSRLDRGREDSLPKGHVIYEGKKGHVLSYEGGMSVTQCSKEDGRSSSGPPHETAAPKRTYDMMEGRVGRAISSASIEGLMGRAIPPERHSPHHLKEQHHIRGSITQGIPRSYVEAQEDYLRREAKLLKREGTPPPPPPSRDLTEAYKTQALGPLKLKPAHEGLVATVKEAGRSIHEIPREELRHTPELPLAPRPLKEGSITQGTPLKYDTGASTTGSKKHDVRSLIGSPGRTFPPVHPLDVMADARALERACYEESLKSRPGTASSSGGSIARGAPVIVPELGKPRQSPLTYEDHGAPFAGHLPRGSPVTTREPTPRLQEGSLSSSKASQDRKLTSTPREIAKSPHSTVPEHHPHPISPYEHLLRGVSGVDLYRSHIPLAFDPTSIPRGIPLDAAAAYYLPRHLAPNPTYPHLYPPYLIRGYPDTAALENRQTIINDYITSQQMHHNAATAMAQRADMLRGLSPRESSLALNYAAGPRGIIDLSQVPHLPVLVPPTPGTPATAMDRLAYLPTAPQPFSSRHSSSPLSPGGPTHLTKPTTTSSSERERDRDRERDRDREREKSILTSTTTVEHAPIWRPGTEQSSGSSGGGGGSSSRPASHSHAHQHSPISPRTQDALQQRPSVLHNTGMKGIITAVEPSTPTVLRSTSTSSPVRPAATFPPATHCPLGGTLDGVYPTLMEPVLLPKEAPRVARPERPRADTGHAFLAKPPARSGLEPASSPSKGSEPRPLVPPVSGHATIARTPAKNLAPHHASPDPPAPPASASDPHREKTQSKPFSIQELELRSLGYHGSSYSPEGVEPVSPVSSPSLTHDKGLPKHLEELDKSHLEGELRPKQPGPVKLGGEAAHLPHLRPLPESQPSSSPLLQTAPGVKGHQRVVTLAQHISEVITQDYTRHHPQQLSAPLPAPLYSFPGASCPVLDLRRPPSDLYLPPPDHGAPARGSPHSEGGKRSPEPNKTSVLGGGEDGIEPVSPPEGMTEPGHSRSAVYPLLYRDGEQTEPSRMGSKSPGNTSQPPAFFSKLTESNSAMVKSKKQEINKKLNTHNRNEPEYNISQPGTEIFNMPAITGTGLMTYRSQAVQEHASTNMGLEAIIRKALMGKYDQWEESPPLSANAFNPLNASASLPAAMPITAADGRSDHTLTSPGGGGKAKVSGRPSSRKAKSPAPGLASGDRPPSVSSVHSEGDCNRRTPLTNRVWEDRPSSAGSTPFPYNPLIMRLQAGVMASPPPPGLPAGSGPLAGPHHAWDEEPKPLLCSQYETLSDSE
assay details: Inhibition of recombinant human HDAC2/NCOR2 using Boc-L-Lys(epsilon-acetyl)-AMC as substrate by two-step fluorogenic assay
Bear in mind: pIC50 is minus log10 of a mol/L concentration; give just that figure.

>>> df
                            compound_smiles  reading
0  CCCC[C@H]1NC(=O)C[C@H]2/C=C/CCSSC[C@@H](NC1=O)C(=O)N[C@H]([C@@H](C)CC)[C@@H](O)CC(=O)O2     5.35

Note pIC50 for the compound shown: `CC[C@H](C)[C@H]1NC(=O)[C@H]2CSSCC/C=C/[C@H](CC(=O)N[C@H](CCSC)C(=O)N2)OC(=O)C[C@@H]1O`
4.41
